B1: Caulobacter ParB omega fusion; a variant is named by its letters at X, in order, B8GW30 (parent)
chain: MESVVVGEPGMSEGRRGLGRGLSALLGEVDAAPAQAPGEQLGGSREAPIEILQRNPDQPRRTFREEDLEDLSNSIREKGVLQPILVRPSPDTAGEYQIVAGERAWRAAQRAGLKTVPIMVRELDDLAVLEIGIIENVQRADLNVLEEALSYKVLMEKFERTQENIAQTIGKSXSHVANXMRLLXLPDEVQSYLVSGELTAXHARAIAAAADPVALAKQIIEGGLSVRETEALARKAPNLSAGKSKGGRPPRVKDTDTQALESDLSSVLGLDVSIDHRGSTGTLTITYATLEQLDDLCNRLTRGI

Variants of: B1
Test: one-hybrid fitness for binding NBS DNA (the Noc-binding site; scaled: cognate 1, non-cognate 0); higher = stronger binding
Settings: with NBS DNA site
Over roughly 81,000 sequences, “one-hybrid fitness for binding NBS DNA” has its median near -0.1; the highest 2% begin near 0.36. The full list was thinned out, with the highest values kept by preference.
Please go through the items and note down their one-hybrid fitness for binding NBS DNA.

Reference set, count: 3
RLHR 0.491
SVNP ≤ 0.2
QHMH ≤ 0.2

Give one-hybrid fitness for binding NBS DNA for all variants that follow.
1. QLMD
2. QHMD
3. DNHG
4. RIAG

Result:
1: ≤ 0.2; 2: ≤ 0.2; 3: ≤ 0.2; 4: ≤ 0.2

Give one-hybrid fitness for binding NBS DNA for all variants that follow.
1. SKTD
2. QHMR

Result:
1: ≤ 0.2; 2: 0.512

Give one-hybrid fitness for binding NBS DNA for all variants that follow.
1. QLMP
2. RLHD

Result:
1: ≤ 0.2; 2: ≤ 0.2
